Entries and their EC50 values follow.
# Test system: genotype 1b NS3/4a protease inhibitor resistant variant D168A transient HCV replicon in Huh-7-derived cells
# experimental-protocol: Transient-transfected HCV replicon EC50, genotype 1b D168A
# Format: cell-based, hepatitis C virus
# stated-conditions: Hepatitis C virus, 72 h, read-out: EC50 1B D168A, transient-transfected replicon genotype 1b D168A resistant variant, 72 h
The response must be a number in nM with no trailing unit.

[[record]]
record_smiles = "COc1ccc2nc3c(nc2c1)O[C@H]1CN(C(=O)[C@H](C(C)(C)C)NC(=O)O[C@@H]2C[C@@H]4C[C@@H]4[C@H]2CCCCC3(F)F)[C@H](C(=O)N[C@]2(C(=O)NS(=O)(=O)C3CC3)C[C@H]2C(F)F)[C@@H]1C"
quantitative_result = 2


Query molecule follows.
Asked: # input molecule: `CC[C@@H]1[C@@H]2CN(C(=O)[C@H](C(C)(C)C)NC(=O)O[C@@H]3C[C@H]3CCCCC(F)(F)c3nc4ccc(C#N)cc4nc3O2)[C@@H]1C(=O)N[C@]1(C(=O)NS(=O)(=O)C2(C)CC2)C[C@H]1C(F)F` ; wanted: its EC50
Given back: 4
